# ASSAY DETAILS: Quantitative High-Throughput drug screen in 47 multiple myeloma cell lines against the NCATS MIPE library collection: AMO1_DSMZ cell viability assay (AID 1918927; further: nearly all actives have a fitted effect of over 30% in size)
# SETUP CONDITIONS: AMO1 myeloma cells viability, CellTiter-Glo ATP luminescence, 48 h; series mostly up to 45.8 µM
Inconclusive results are not listed. Active and inactive are the calls of the source. The call rests on the fitted dose curve; in most records, active means well fitted cell-killing curve with a large enough effect; inconclusive means small, poorly fitted or top-dose-only effect, or effect the other way; inactive means no such curve, though single readings can be large or run the other way.
Reply using exactly one outcome from active, inactive

Completed entries (count: 5):
CCCCCCCCCCCC(CC1OC(=O)C1CCCCCC)OC(=O)C(CC(C)C)NC=O (stereo unspecified)    inactive
O=C(c1ccc(F)cc1)N1CCC[C@H](c2nc(-c3ccc(F)cc3)no2)C1    inactive
COC(=O)[C@H](CCCN=C(N)N)NS(=O)(=O)c1ccc(C)cc1    inactive
Cn1cc(C2=C(c3c4n(c5ccccc35)CCC(CN)C4)C(=O)NC2=O)c2ccccc21 (stereo unspecified)    active
Cc1ccc(O)c(C(CCN(C(C)C)C(C)C)c2ccccc2)c1 (stereo unspecified)    inactive

Okay, now this compound:
Data request: What outcome does the record of this test show for `O=C(Nc1nnc(-c2ccco2)o1)c1cc(-c2ccccc2)nc2ccccc12` ?
Data returned: active

====

# ASSAY DETAILS: Quantitative High-Throughput drug screen in 47 multiple myeloma cell lines against the NCATS MIPE library collection: MOLP8_DSMZ cell viability assay (AID 1918977); further: nearly all actives have a fitted effect of over 45% in size
# SETUP CONDITIONS: MOLP8 myeloma viability, CellTiter-Glo ATP luminescence, 48 h; series mostly up to 45.8 µM
Records with an inconclusive call do not appear. Activity calls are given as the source filed them. The call rests on the fitted dose curve; in most records, active means well fitted cell-killing curve with a large enough effect; inconclusive means small, poorly fitted or top-dose-only effect, or effect the other way; inactive means no such curve, though single readings can be large or run the other way.
Reply using exactly one outcome from label 1 for active, label 0 for inactive

Completed entries (count: 2):
COc1ccc2c(c1OC)C(=O)OC2[C@H]1c2c(cc3c(c2OC)OCO3)CCN1C (stereo partly specified)    label 1
COc1cccc2c1C(=O)c1c(O)c3c(c(O)c1C2=O)C[C@@](O)(C(=O)CO)C[C@@H]3O[C@H]1C[C@H](N)[C@H](OC2CCCCO2)[C@H](C)O1 (stereo partly specified)    label 1

Data request: What outcome does the record of this test show for `NC1=N[C@H]2[C@H](CS[C@H]2CCCCC(=O)O)N1` ?
Data returned: label 0

Data request: What outcome does the record of this test show for `COC[C@H](NC(=O)c1cnc(C)s1)C(=O)N[C@@H](COC)C(=O)N[C@@H](Cc1ccccc1)C(=O)[C@@]1(C)CO1` ?
Data returned: label 1

Data request: What outcome does the record of this test show for `Cn1cc(-c2cnn3c(N)c(Br)c([C@H]4CCCNC4)nc23)cn1` ?
Data returned: label 1

====

# ASSAY DETAILS: qHTS of pediatric cancer cell lines to identify multiple opportunities for drug repurposing: Primary screen for A673 cells (AID 1347092); further: nearly all actives have a fitted effect of over 45% in size
# SETUP CONDITIONS: A673 Ewing sarcoma viability, CellTiter-Glo ATP luminescence, 48 h; series mostly up to 46 µM
Results filed as inconclusive are left out. The source made the active and inactive calls. Calls come from the whole dose curve; as a rule, active = well fitted cell-killing curve with a large enough effect; inconclusive = small, poorly fitted or top-dose-only effect; inactive = no such curve, though single readings can be large or run the other way.
Reply using exactly one outcome from active, inactive

Completed entries (count: 4):
Cn1cc(-c2ccc3ncc(Cc4ccc5ncccc5c4)n3n2)cn1    inactive
COc1cc2c(cc1OC)[C@@H]1C(=O)c3ccc4c(c3O[C@@H]1CO2)C=CC(C)(C)O4    active
O=C(CN1C(=O)C2(CCCC2)NC[C@H]1c1cc(F)cc(F)c1)Nc1ccc2c(c1)C[C@@]1(C2)C(=O)Nc2ncccc21    inactive
CC(=O)N1CCN(c2ccc(OCc3nn(C)c(C)c3-c3cccc4c(CCCOc5cccc6ccccc56)c(C(=O)O)n(Cc5cccnc5)c34)cc2)CC1    active

Data request: What outcome does the record of this test show for `Cc1cnn(C)c1C(=O)Nc1cc(Nc2ccc3c(C=Cc4ccccn4)n[nH]c3c2)ccc1F` ?
Data returned: active
